Record form. Attribute: % inhibition in confirmation assay. Fill in for each entry.
Biological target: pre-existing anti-VH ADA in human serum
Test: ADA confirmation assay (MSD) described previously, mean of 10 donor sera
Answers are plain numbers, in %.

binder	value
DOM10H-53-567 C-terminal ASTKG (protein) VH: GVQLLESGGGLVQPGGSLRLSCAASGFVFAWYDMGWVRQAPGKGLEWVSSIDWHGEVTYYADSVKGRFTISRDNSKNTLYLQMNSLRAEDTAVYYCATAEDEPGYDYWGQGTLVTVSSASTKG	13.4

stdin: Bench note: what % inhibition in confirmation assay did DOM10H-53-567 C-terminal ASTK (protein) VH: GVQLLESGGGLVQPGGSLRLSCAASGFVFAWYDMGWVRQAPGKGLEWVSSIDWHGEVTYYADSVKGRFTISRDNSKNTLYLQMNSLRAEDTAVYYCATAEDEPGYDYWGQGTLVTVSSASTK show?
stdout: 27.7
